# reported percent difference in area under dose-response curve; entries follow
System: SUM149
Assay Method Text: percent difference in area under dose-response curve of relative cell number, RPMI vs HPLM; higher = drug relatively more effective in HPLM than RPMI (negative = less effective in HPLM)
Test Parameters: treatment time: 72 h; dose range: 10-point, 1 nM to 20 µM; media compared: RPMI vs HPLM
Just the number in %, nothing appended.

-- ask # returns recorded percent difference in area under dose-response curve (system: SUM149) for C=C(C)[C@H]1Cc2c(ccc3c2O[C@@H]2COc4cc(OC)c(OC)cc4[C@@H]2C3=O)O1
-- reply -23

-- ask Same again, this time with N#Cc1cn([C@@H]2O[C@H](CO)[C@@H](O)[C@H]2O)c2ncnc(N)c12
-- reply -27.1

-- ask Request: c1ccc2c(c1)[I+]c1ccccc1-2 [Diphenyleneiodonium_chloride]
-- reply -42

Please look at the following compound next.
-- ask GET /values?readout=percent difference in area under dose-response curve&system=SUM149&item= CCCCCC[C@H]1C(=O)O[C@H](C)[C@H](NC(=O)c2cccc(NC=O)c2O)C(=O)O[C@@H](C)[C@@H]1OC(=O)CC(C)C [Antimycin_A]
-- reply -6.05

* * *

Test system: SUM149
Assay Method Text: percent difference in area under dose-response curve of relative cell number, RPMI vs HPLM; higher = drug relatively more effective in HPLM than RPMI (negative = less effective in HPLM)
Test Parameters: treatment time: 72 h; dose range: 10-point, 1 nM to 20 µM; media compared: RPMI vs HPLM
Outcome label depends on percent difference in area under dose-response curve relative to -30%: at/above gives Fulfilled, below gives Not fulfilled.

-- ask Given CCOc1ccccc1-n1c(C(C)N2CCN(C(=O)COc3ccc(Cl)cc3)CC2)nc2ccccc2c1=O (stereo not given) , state whether its percent difference in area under dose-response curve is at least -30%.
-- reply Fulfilled

More entries:
-- ask Form field: percent difference in area under dose-response curve at least -30%? Entry: C/C(=C\c1csc(C)n1)[C@@H]1C[C@@H]2O[C@]2(C)CCC[C@H](C)[C@H](O)[C@@H](C)C(=O)C(C)(C)[C@@H](O)CC(=O)O1
-- reply Not fulfilled

-- ask Now consider CC[C@@H]1/C=C/C=C/C[C@H](C)[C@H](O)[C@](C)(O)C(=O)[C@H](C)[C@@H](O)[C@H](C)C(=O)[C@H](C)[C@@H](O)[C@H](C)/C=C/C(=O)O[C@H]2[C@@H](C)[C@@H](CC1)O[C@@]1(CC[C@@H](C)[C@@H](C[C@H](C)O)O1)[C@@H]2C .
-- reply Not fulfilled

-- ask Further, for C/C=C(/C)C(=O)O[C@H]1C(C)=C2[C@H]([C@@H]1OC(=O)CCCCCCC)[C@@](C)(OC(C)=O)C[C@H](OC(=O)CCC)[C@@]1(O)[C@H]2OC(=O)[C@@]1(C)O ?
-- reply Not fulfilled

-- ask Queued: [N-]=[N+]=CC(=O)OC[C@H](N)C(=O)O
-- reply Fulfilled

* * *

Test system: SUM149
Assay Method Text: percent difference in area under dose-response curve of relative cell number, RPMI vs HPLM; higher = drug relatively more effective in HPLM than RPMI (negative = less effective in HPLM)
Test Parameters: treatment time: 72 h; dose range: 10-point, 1 nM to 20 µM; media compared: RPMI vs HPLM
Each item that follows carries a reported percent difference in area under dose-response curve.
// units = %; emit number, no label

-- ask Record CC1=CC(=O)c2c(O)cccc2C1=O : what is its percent difference in area under dose-response curve with SUM149?
-- reply -4.04

-- ask Would you mind doing S=C=NCCc1ccccc1 as well?
-- reply -5.8

Continuing:
-- ask # value lookup — system SUM149, readout percent difference in area under dose-response curve, item O=S(=O)(CC1CS1)c1ccc(Oc2ccccc2)cc1 (centres undefined)
-- reply 4.58

-- ask Please do the same for C/C(=C\c1csc(C)n1)[C@@H]1C[C@@H]2O[C@@H]2CCC[C@H](C)[C@H](O)[C@@H](C)C(=O)C(C)(C)[C@@H](O)CC(=O)O1 as well.
-- reply -32.6

-- ask Request: O=C1CSC(c2ccccc2Cl)c2cc(Cl)ccc2N1 (centres undefined)
-- reply 4.73

-- ask Entry Cc1sc2c(c1C)C(c1ccc(Cl)cc1)=N[C@@H](CC(N)=O)c1nnc(C)n1-2 please
-- reply -25.8

-- ask Then what about the compound C[S+]([O-])CCCCN=C=S (centres undefined) ?
-- reply -4.37

-- ask CC(C)[C@]12O[C@H]1[C@@H]1O[C@]13[C@]1(O[C@H]1C[C@H]1C4=C(CC[C@@]13C)C(=O)OC4)[C@@H]2O [Triptolide] , same question.
-- reply -67

-- ask Can you handle CC(=O)c1c(O)c(C)c(O)c(Cc2c(O)c3c(c(C(=O)/C=C/c4ccccc4)c2O)OC(C)(C)C=C3)c1O next?
-- reply -6.49

This collection of values is drawn from the supplement of paper PMC11383364.
